Data credit: ChEMBL document CHEMBL3886358

Target Of Assay: Histone deacetylase 5 (Homo sapiens, UniProt Q9UQL6)
Sequence (Q9UQL6 whole entry, canonical isoform): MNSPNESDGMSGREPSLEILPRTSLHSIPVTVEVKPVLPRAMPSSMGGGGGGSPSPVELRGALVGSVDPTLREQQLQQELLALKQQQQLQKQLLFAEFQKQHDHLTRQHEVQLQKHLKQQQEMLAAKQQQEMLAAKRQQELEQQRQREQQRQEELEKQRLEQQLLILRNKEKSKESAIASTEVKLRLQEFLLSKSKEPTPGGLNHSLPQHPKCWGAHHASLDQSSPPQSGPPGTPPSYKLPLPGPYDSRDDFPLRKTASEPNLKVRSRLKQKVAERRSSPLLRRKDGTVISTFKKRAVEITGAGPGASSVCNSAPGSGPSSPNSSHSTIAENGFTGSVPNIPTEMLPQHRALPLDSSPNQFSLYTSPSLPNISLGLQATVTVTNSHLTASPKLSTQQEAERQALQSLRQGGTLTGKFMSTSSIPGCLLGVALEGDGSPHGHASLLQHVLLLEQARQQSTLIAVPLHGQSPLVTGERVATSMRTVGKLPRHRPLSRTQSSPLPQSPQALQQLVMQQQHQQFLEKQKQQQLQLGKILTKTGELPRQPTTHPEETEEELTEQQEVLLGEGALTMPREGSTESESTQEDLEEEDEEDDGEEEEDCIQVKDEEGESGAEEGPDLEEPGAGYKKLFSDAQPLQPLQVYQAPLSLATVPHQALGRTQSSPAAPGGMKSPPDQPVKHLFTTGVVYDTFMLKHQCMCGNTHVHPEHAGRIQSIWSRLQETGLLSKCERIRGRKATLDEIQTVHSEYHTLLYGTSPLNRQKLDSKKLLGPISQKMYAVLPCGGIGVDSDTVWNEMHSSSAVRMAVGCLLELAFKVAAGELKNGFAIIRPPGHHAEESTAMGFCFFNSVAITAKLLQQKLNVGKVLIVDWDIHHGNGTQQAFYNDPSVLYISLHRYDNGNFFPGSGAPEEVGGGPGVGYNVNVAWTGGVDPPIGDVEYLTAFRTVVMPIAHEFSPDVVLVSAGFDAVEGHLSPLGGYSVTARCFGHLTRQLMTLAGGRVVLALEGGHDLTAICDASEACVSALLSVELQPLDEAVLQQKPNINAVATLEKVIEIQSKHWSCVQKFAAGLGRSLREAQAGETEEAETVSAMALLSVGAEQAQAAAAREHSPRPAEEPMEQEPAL
Test Name: Inhibition Assay: The inhibitions of activities of HDAC enzymes by the compounds N1'-[3-fluoro-4-[[7-[4-(hydroxyamino)-4-oxobutoxy]-6-methoxy-4-quinolyl]oxy]phenyl]-N1-(4-fluoro phenyl)cyclopropane-1,1-dicarboxamide prepared in Example 9 and N1'-[3-fluoro-4-[[7-[6-(hydroxyamino)-6-oxohexyloxy]-6-methoxy-4-quinolyl]oxy]phenyl]-N1-(4-fluo rophenyl)cyclopropane-1,1-dicarboxamide prepared in Example 13 were measured by Reaction Biology Corporation (Reaction Biology Corp., One Great Valley Parkway, Suite 2, Malvern, PA 19355, USA . http://www.reactionbiology.com/pages/hdac.htm). The HDAC enzymes tested include the following 11 HDAC isoforms: HDAC1, HDAC2, HDAC3, HDAC4, HDAC5, HDAC6, HDAC7, HDAC8, HDAC9, HDAC10 and HDAC11.Specific steps were as follows: The compound of the present invention was dissolved in dimethyl sulfoxide (DMSO) to make a stock solution of 10 mM. The stock solution was diluted in 4-fold series starting from 10 mM to prepare 10 different dosages.
// reported IC50 for each item listed

>  <Chemical String>
COc1cc2c(Oc3ccc(NC(=O)C4(C(=O)Nc5ccc(F)cc5)CC4)cc3F)ccnc2cc1OCCCCCC(=O)NO

>  <IC50>
> 10 µM

$$$$
>  <Chemical String>
COc1cc2c(Oc3ccc(NC(=O)C4(C(=O)Nc5ccc(F)cc5)CC4)cc3F)ccnc2cc1OCCCC(=O)NO

>  <IC50>
> 10 µM

$$$$
